The measured values listed here are drawn from patent US20250188082A1.

system: bleomycin-induced pulmonary fibrosis model; assay: Advanced pulmonary fibrosis: bleomycin-induced model, dosing from three weeks after modelling; assay type: in vivo, C57BL/6 mice; details: mice with advanced pulmonary fibrosis; result in words
measured parameter: inhibition (anti-inflammatory) effect on leucocytes, neutrophils and lymphocytes in blood

Provide inhibition (anti-inflammatory) effect on leucocytes, neutrophils and lymphocytes in blood value for the following compound: COc1ncnc2c1ncn2C(C)C [Hypoxanthine analogue C, reference compound] obviously inferior

Tell me inhibition (anti-inflammatory) effect on leucocytes, neutrophils and lymphocytes in blood reported for O=c1[nH]cnc2[nH]cnc12 [Hypoxanthine analogue A, reference compound] obviously inferior

Determine its reported inhibition (anti-inflammatory) effect on leucocytes, neutrophils and lymphocytes in blood: CC(C)Oc1ncnc2c1ncn2C [Hypoxanthine analogue B, reference compound] obviously inferior

Name the recorded inhibition (anti-inflammatory) effect on leucocytes, neutrophils and lymphocytes in blood of the item COC(=O)c1ccc2c(c1)NC(=O)/C2=C(\Nc1ccc(N(C)C(=O)CN2CCN(C)CC2)cc1)c1ccccc1 [Nintedanib, reference compound] in your answer. obviously inferior

----------
test system: Streptococcus pneumoniae-induced pulmonary fibrosis model; experiment: Streptococcus pneumoniae-induced pulmonary fibrosis model; type: in vivo, C57BL/6 mice; conditions: Streptococcus pneumoniae + bleomycin; blood, Day 15; 120 mg/kg/d intragastric, 3 times every day, 14 days, from one week after model
Overview of recorded Leucocyte for various compounds

Return reported Leucocyte for target or system Streptococcus pneumoniae-induced pulmonary fibrosis model, item CC(C)Oc1ncnc2ncn(C(C)C)c12 [Compound 4] . 6.99 10^9/L

Find the measured Leucocyte of CC(C)Oc1ncnc2c1N(C(C)C)CN2C(C)C [Compound 10] with Streptococcus pneumoniae-induced pulmonary fibrosis model as test system. 7.01 10^9/L

Then this compound:
Fetch value of Leucocyte on Streptococcus pneumoniae-induced pulmonary fibrosis model for CC(=O)Oc1ncnc2c1ncn2C(C)C [Compound 11] . 6.29 10^9/L

----------
TGF-β in bronchoalveolar lavage fluids: recorded values
system: bleomycin-induced pulmonary fibrosis model; assay: Comparison with comparative drugs: bleomycin-induced model, hydroxyproline and TGF-β; assay type: in vivo, C57BL/6 mice; details: 120 mg/kg/d intragastric, twice every day, 14 days, from two weeks after model; Day 15
A number alone suffices; assume µg/L.

Check out these entries, answers already filled in.
Enter measured TGF-β in bronchoalveolar lavage fluids, system bleomycin-induced pulmonary fibrosis model, for the compound shown: CC(C)n1cnc2c(ncn2C(C)C)c1=S [Hypoxanthine analogue D] 6.42

Please respond with reported TGF-β in bronchoalveolar lavage fluids (system bleomycin-induced pulmonary fibrosis model) for CC(C)n1cnc2nc[nH]c(=O)c21 [Compound 6] . 3.91

Provide the reported TGF-β in bronchoalveolar lavage fluids (system: bleomycin-induced pulmonary fibrosis model) for CC(C)Oc1ncnc2nc[nH]c12 [Compound 5] 3.93

Answer with TGF-β in bronchoalveolar lavage fluids of CC(C)n1cnc2c(=O)n(C)cnc21 [Compound E-6] measured for bleomycin-induced pulmonary fibrosis model. 6.14

Please respond with reported TGF-β in bronchoalveolar lavage fluids (system bleomycin-induced pulmonary fibrosis model) for CC(C)Oc1ncnc2ncn(C(C)C)c12 [Compound 4] . 3.95

Further cases:
Would you please give the reported TGF-β in bronchoalveolar lavage fluids of CC(C)n1cnc2c(=O)[nH]cnc21 [Compound 2] with bleomycin-induced pulmonary fibrosis model? 4.02

----------
system: bleomycin-induced pulmonary fibrosis model; assay: Advanced pulmonary fibrosis: bleomycin-induced model, dosing from three weeks after modelling; format: in vivo, C57BL/6 mice; conditions: advanced pulmonary fibrosis; blood, Day 15; 120 mg/kg/d intragastric, twice every day, 14 days, from three weeks after model
Parameter Neutrophil: see the listing below.

Past entries and their recorded results:
Answer briefly: Neutrophil recorded on bleomycin-induced pulmonary fibrosis model for O=c1[nH]cnc2[nH]cnc12 [Hypoxanthine analogue A, reference compound] 67.48 10^9/L

Provide Neutrophil, tested on bleomycin-induced pulmonary fibrosis model, for CCC(=O)Oc1ncnc2c1ncn2C(C)C [Compound 12] . 1.23 10^9/L

Identify measured Neutrophil obtained with bleomycin-induced pulmonary fibrosis model for CC(C)n1cnc2nc[nH]c(=O)c21 [Compound 6] . 1.59 10^9/L

Provide measured Neutrophil on bleomycin-induced pulmonary fibrosis model for CC(C)Oc1ncnc2ncn(C(C)C)c12 [Compound 4] please. 1.34 10^9/L

Please indicate recorded Neutrophil of CCCOc1ncnc2c1ncn2C(C)C [Compound 9] measured with bleomycin-induced pulmonary fibrosis model. 1.46 10^9/L

// fetch Neutrophil for CCOc1ncnc2c1ncn2C(C)C [Compound 8] ; system: bleomycin-induced pulmonary fibrosis model 1.42 10^9/L

Please report the measured Neutrophil for CC(C)Oc1ncnc2[nH]cnc12 [Compound 1] tested on bleomycin-induced pulmonary fibrosis model. 1.37 10^9/L

Give reported Neutrophil for CC(C)n1cnc2c(=O)[nH]cnc21 [Compound 2] (bleomycin-induced pulmonary fibrosis model) 1.26 10^9/L

Others:
Quote Neutrophil with test system bleomycin-induced pulmonary fibrosis model for CC(C)Oc1ncnc2nc[nH]c12 [Compound 5] 1.36 10^9/L

// fetch Neutrophil for CC(C)Oc1ncnc2c1ncn2C(C)C [Compound 3] ; system: bleomycin-induced pulmonary fibrosis model 1.19 10^9/L

Write down the reported Neutrophil (system: bleomycin-induced pulmonary fibrosis model) of CC(=O)Oc1ncnc2c1ncn2C(C)C [Compound 11] 1.39 10^9/L

Name the value of Neutrophil reported for CC(C)Oc1ncnc2c1ncn2C [Hypoxanthine analogue B, reference compound] when tested on bleomycin-induced pulmonary fibrosis model. 68.34 10^9/L

Fill in: Neutrophil on bleomycin-induced pulmonary fibrosis model, entry COC(=O)c1ccc2c(c1)NC(=O)/C2=C(\Nc1ccc(N(C)C(=O)CN2CCN(C)CC2)cc1)c1ccccc1 [Nintedanib, reference compound] 40.99 10^9/L

Please report the measured Neutrophil for CC(C)Oc1ncnc2c1N(C(C)C)CN2C(C)C [Compound 10] tested on bleomycin-induced pulmonary fibrosis model. 1.38 10^9/L
